Source listed as PubChem BioAssay (NCI).

# System: SK-MEL-2 melanoma
Thanks in advance; please answer with one of these: Y = active, N = inactive

Some solved cases for reference:
CCOC(=O)c1c(Cl)c2c(n1Cc1cc(OC)cc(OC)c1)-c1oncc1CCC2; Y
Cc1ccc(NC(=O)c2ccnc(N3CCCC3)c2)cc1-c1ccc(C(=O)NCC2CC2)cc1; N
CC/C(=C(\CC)c1ccc(OCCN(CC)CC)cc1)c1ccc(OCCN(CC)CC)cc1; N
C=C[C@]1(C)C=C2C(=O)[C@@]3(O)OC(=O)[C@@]4(CCCC(C)(C)[C@H]34)[C@@]2(O)CC1; N
COC(=O)Nc1nc2ccc(Oc3ccc(NC(=O)Nc4cccc(Cl)c4)cc3)cc2[nH]1; N

How did this test come out for C/C(=C\c1c[nH]c2ccccc12)[N+](=O)[O-] ?
N

How did this test come out for COc1cc2c(cc1OC)[C@@]1(C)C(=O)c3cc4c(cc3[C@H]1N(C)C2=O)OCO4 ?
N

How did this test come out for CC1(C)C2CCC13C(=O)C1OC3(C2)C2C(=O)c3c(O)ccc(O)c3C(=O)C12 (stereo not given) ?
N

How did this test come out for COC(=O)[C@@H](C)C[C@H](Cc1ccccc1)NC(=O)c1csc([C@@H](C[C@H](C(C)C)N(C)C(=O)[C@@H](NC(=O)[C@H]2CCCCN2C)C(C)C)OC(C)=O)n1 ?
Y

How did this test come out for COc1cc2c3c(n(C4CCNCC4)c(=O)c2cc1OC)-c1cc2c(cc1C3=O)OCO2 ?
N
